Ref: patent US20250206841A1

measured target: T1, mouse Trop-2 (mouse, UniProt Q8BGV3 25-270, limits assumed)
T1 construct: also called Kactus Cat #TRP-MM121
T1 sequence (looked up): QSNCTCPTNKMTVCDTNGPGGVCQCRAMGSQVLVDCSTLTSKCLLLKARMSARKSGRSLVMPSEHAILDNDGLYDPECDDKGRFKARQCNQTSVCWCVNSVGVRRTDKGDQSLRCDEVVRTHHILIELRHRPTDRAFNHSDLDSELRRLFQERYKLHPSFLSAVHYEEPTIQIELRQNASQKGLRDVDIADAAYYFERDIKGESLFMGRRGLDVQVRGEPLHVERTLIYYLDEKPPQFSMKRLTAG
test summary: ELISA, similar to Table 24
readout kind: binding result

[[record]]
binder = "5D4 (antibody, V domains shown, Rabbit-derived clone; LEM construct: VH + rabbit IgG CH1 + human IgG1 CH2-CH3) VH: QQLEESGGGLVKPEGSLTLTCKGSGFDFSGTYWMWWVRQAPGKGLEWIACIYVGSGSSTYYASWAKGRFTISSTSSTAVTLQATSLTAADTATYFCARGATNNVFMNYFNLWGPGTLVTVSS VL: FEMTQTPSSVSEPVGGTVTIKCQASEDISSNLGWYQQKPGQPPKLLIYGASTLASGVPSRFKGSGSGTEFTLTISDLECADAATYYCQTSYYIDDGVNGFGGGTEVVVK"
val = "no binding"

[[record]]
binder = "9D7 (antibody, V domains shown, Rabbit-derived clone; LEM construct: VH + rabbit IgG CH1 + human IgG1 CH2-CH3) VH: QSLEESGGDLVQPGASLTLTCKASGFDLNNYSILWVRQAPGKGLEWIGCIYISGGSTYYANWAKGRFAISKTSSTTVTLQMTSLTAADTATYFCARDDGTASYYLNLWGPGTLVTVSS VL: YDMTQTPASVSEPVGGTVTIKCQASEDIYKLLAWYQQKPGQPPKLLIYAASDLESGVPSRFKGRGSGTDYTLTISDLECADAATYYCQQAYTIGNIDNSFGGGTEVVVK"
val = "no binding"

[[record]]
binder = "1D10 (antibody, V domains shown, Rabbit-derived clone; LEM construct: VH + rabbit IgG CH1 + human IgG1 CH2-CH3) VH: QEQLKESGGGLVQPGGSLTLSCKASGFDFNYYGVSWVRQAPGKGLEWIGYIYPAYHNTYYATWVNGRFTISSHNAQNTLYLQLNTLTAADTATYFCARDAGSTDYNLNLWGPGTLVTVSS VL: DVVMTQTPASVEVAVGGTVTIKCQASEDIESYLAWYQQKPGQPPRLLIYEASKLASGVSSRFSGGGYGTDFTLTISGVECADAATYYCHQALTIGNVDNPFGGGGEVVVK"
val = "no binding"

